- experiment notes: Mice CNS PK study
- Format: in vivo
- condition label: CD-1 mouse, plasma; read-out: Plasma AUClast
Form field: AUC(0-t) (one value per entry).
measurement label: AUC(0-t)

1. CC(C)n1c(=O)c2cnc(Nc3ccc(N4CCN(C)CC4)cc3)nc2n1-c1cccc(C(C)(C)F)n1 [Example 13]
8660 ng·h/mL
2. CC(C)n1c(=O)c2cnc(Nc3ccc(N4CCN(C)CC4)cc3)nc2n1-c1cccc(C2CC2)n1 [Example 15]
4710 ng·h/mL
3. C=CCn1c(=O)c2cnc(Nc3ccc(N4CCN(C)CC4)cc3)nc2n1-c1cccc(C(C)(C)O)n1 [AZD1775, reference compound]
9000 ng·h/mL
4. CC(C)n1c(=O)c2cnc(Nc3ccc(N4CCN(C)CC4)cc3)nc2n1-c1cccc(C(C)(C)C(F)(F)F)n1 [Example 11]
7510 ng·h/mL
